- Tested on: commercially available normal plasma (Coagtrol N)
- Assay Summary: Fibrinogen measurement by thrombin time method: coagulation time and change in scattered light intensity of normal plasma after adding thrombin reagent
- Format: biochemical
- Condition Summary: Table 1; agent in specimen diluent (HEPES buffer pH 7.5): NaCl 145 mM, NaBr 110, KBr 105, KCl 135, LiCl 135, guanidine HCl 90, guanidine phosphate 30, guanidine sulfamate 55, aminoguanidine HCl 90, arginine HCl 55, arginine methyl ester 17 mM; single measurement for conventional methods (2)-(5), ten times for the others
Where a name gives a salt, the structure may show the parent alone.
Entries and their Coagulation time
Record the value in s, omitting the unit from your answer.

N=C(N)N.NS(=O)(=O)O [Guanidine sulfamate]; 11.2
COC(=O)[C@@H](N)CCCNC(=N)N [Arginine methyl ester]; 11
[Cl-].[Li+] [Lithium chloride]; 10.8

Request the reported Coagulation time associated with [Cl-].[Na+] [Sodium chloride] 10.7

Request the reported Coagulation time associated with N=C(N)NN [Aminoguanidine hydrochloride] 9.7

Request the reported Coagulation time associated with [Cl-].[K+] [Potassium chloride] 10.8

Request the reported Coagulation time associated with [Br-].[Na+] [Sodium bromide] 11.3

Request the reported Coagulation time associated with Cl.N=C(N)NCCC[C@H](N)C(=O)O [Arginine hydrochloride] 10.3

Request the reported Coagulation time associated with N=C(N)N.O=P(O)(O)O [Guanidine phosphate] 10.4

Request the reported Coagulation time associated with N=C(N)N [Guanidine hydrochloride] 10.3

Request the reported Coagulation time associated with [Br-].[K+] [Potassium bromide] 11.4
